This collection of values is drawn from PubChem BioAssay AID1159580.

normalized growth values by entry
Assay: chemical genetic growth profiling, strain panel (AID 1159580);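 further: tested at 20 µM; growth read once vehicle control cultures reached saturation at 30 °C; 1 = growth at the plate median or of vehicle wells; lower values mean less growth of the strain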
Conditions: S. cerevisiae deletion strains, growth OD, locus YLR221C, strain rsa3, active compounds read low
Among all 5,500 compounds or so, about 2,000 (36%) were called active. Not shown: some 18% with an inconclusive outcome. Some of the results follow.
// response body must contain only the number

CC(=O)NS(=O)(=O)c1ccc(NC(=O)c2ccccc2C(=O)O)cc1; 1.02

The compound listed as Cc1ccc(N(CC2=NCCN2)c2cccc(O)c2)cc1 shows normalized growth equal to 0.998

Please fill in: normalized growth reported for CCOC([O-])=Nc1c[n+](N2CCOCC2)no1 = 0.985

Please fill in: normalized growth reported for OCCN1CCN(CCCN2c3ccccc3Sc3ccc(C(F)(F)F)cc32)CC1 = 0.975

For reference, reported normalized growth for CN1CCN(CC(=O)N2c3ccccc3C(=O)Nc3cccnc32)CC1 stands at 1.01

Item: CC(=O)[C@@]1(O)CCC2C3CCC4=CC(=O)CC[C@]4(C)C3CC[C@@]21C (some centres not stated) | normalized growth: 1

----------
Experiment: chemical genetic growth profiling, strain panel (AID 1159580);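 further: tested at 20 µM; growth read once vehicle control cultures reached saturation at 30 °C; 1 = growth at the plate median or of vehicle wells; lower values mean less growth of the strain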
Conditions: S. cerevisiae deletion strains, growth OD, locus YML120C, strain ndi1, active compounds read low
In all, about 5,500 compounds went through this assay and about 2,000 (36%) were called active. Another 18% or so got no clear call; they are omitted. Some of the results follow.
Assay Metric: normalized growth

Use the examples below as a reference point.
O=C(O)c1cc(=O)c2c(Cl)cc(Cl)cc2[nH]1; 1.02 (inactive)
NC[C@H]1O[C@H](O[C@H]2[C@H](O)[C@@H](O[C@H]3O[C@H](CO)[C@@H](O)[C@H](N)[C@H]3O)[C@H](N)C[C@@H]2N)[C@H](N)C[C@@H]1O; 1.01 (inactive)

Lookup result for CN[C@@H]1[C@@H](O[C@H]2O[C@H](CO)[C@@H](N)[C@H](O)[C@H]2O)O[C@H]2C[C@@H](N)[C@H](O[C@H]3[C@H](O)[C@@H](O)[C@H](N)C[C@@H]3N)O[C@@H]2[C@@H]1O ; measured normalized growth: 1 (inactive)

----------
Assay: chemical genetic growth profiling, strain panel (AID 1159580);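 further: tested at 20 µM; growth read once vehicle control cultures reached saturation at 30 °C; 1 = growth at the plate median or of vehicle wells; lower values mean less growth of the strain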
Conditions: S. cerevisiae deletion strains, growth OD, locus YOR184W, strain ser1, active compounds read low
The campaign covered roughly 5,500 compounds. About 2,000 (36%) were called active. Another 18% or so got no clear call; they are omitted. This is one part of the list. *1 amine or outer side, *2 acyl side, *3 side chain or, on linkers, in order; H or OH if unused. Where a SMILES comes first, the peptide text is derived from it. Bridges are numbered along the chain shown (N, C = ends). [ ]: non-standard residue; d: D form. The star is where a group is joined. ξ: configuration not given here. ΔAla(E,3-NHCONH2) = NC(=O)N/C=C(/N)C(=O)O; X2 = NC1=NCCC(C(N[*:1])C(=O)[*:2])N1; ξβ3hOrn = NCCCC(N)CC(=O)*; Dap = NC[CH](N)C(=O)O
Below, each entry is listed with its recorded normalized growth.
// response body must contain only the number

# annotated cases, reported normalized growth shown
CC1=CC(=O)C2=C(C)CC(O)C3C(C)C(=O)OC3C12 (stereo not drawn); 1.06
CC1=CC2C(C(C)C)CCC(C)(O)C2CC1 (stereo not drawn); 0.933
COc1ccc(C(=O)O)c(O)c1OC; 0.998
CC1(C)C=Cc2cc3ccc(=O)oc3cc2O1; 0.892
COC(=O)C[C@H]1C(C)(C)[C@@H](O)[C@@H]2CC3=C4C=C(OC)O[C@@H](c5ccoc5)[C@]4(C)CCC3[C@@]1(C)C2=O (stereo partly drawn); 0.994

Sure, the documented normalized growth for COc1ccc2c(=O)ccoc2c1 is 0.988

For reference, reported normalized growth for COc1c2ccoc2cc2oc(C)cc(=O)c12 stands at 0.967

Lab note: NCCCC(N)CC(=O)NCC1NC(=O)C(CO)NC(=O)C(N)CNC(=O)C(C2CCN=C(N)N2)NC(=O)/C(=C\NC(N)=O)NC1=O (stereo not drawn) (H-[Dap]S[Dap](ξβ3hOrn)[ΔAla(E,3-NHCONH2)][X2]; lactam 1-C; configuration not given here) gave normalized growth of 1.02

According to the records, this compound CC(=O)[O][Hg][c]1ccccc1 displays normalized growth of 0.073

Entry NCC1OC(OC2C(CO)OC(OC3C(O)C(N)CC(N)C3OC3OC(CO)C(O)CC3N)C2O)C(N)C(O)C1OC1OC(CO)C(O)C(O)C1O (stereo not drawn) ; normalized growth = 0.97

Quick note, normalized growth for CC(=O)O[C@@H]1CC[C@]2(C)C3CC[C@]4(C)C(=O)CCC4C3CC[C@H]2C1 (stereo partly drawn) landed at 0.713

For record CC(=O)Oc1cccc2c1C(=O)c1c(OC(C)=O)cc(C(=O)O)cc1C2=O the listed normalized growth is 1.02

Entry under test: Cc1ccc(N(CC2=NCCN2)c2cccc(O)c2)cc1 . Its normalized growth was 0.975

Short answer for CCCCCCCCCCCCCCCCCCOCC(O)CO (stereo not drawn) : normalized growth was 0.995

According to the records, this compound Cc1cc(C(C)(C)C)c(O)c(C)c1CC1=NCCN1 displays normalized growth of 1.01
